Catalogue of binders with associated percentage of cells with FITC signal
System under test: T1, human 4-1BB (h4-1BB) on transiently transfected CHO cells (human, UniProt Q07011 24-255)
T1 construct: also called TNFRSF9; CD137
Measurement protocol: flow cytometry, CHO cells transfected with human 4-1BB, antibody at 1 µg/ml
State the answer as a number, implicitly in %.

// known answers, use as guide
Q: Report percentage of cells with FITC signal for 45-8E2 (antibody, V domains shown, mouse antibody purified from ascites) VH: EVKLLESGGGLVQPGGSLKLSCAASGFDFSRYWMSWVRQAPGKGLEWIGEIHPDSSAINYTPSLKDKFIISRDNAKNTLYLQMSKVRSEDTALYYCARSYYGRVFDYWGQGTTLTVSS VL: DIVMTQSPATLSVTPGDRVSLSCRASQSISDYLHWYQQKSHESPRLLIKYASQSISGIPPRFSGSGSGSDFTLSINSVEPEDVGMYYCQDGHSFPPTFGAGTKLELK please.
Result: 60.1

Q: Report percentage of cells with FITC signal for 69-3C2 (antibody, V domains shown, mouse antibody purified from ascites) VH: DVQLVESGGGLVQPGGSRKLSCAASGFSFSSFGMHWMRQAPEKGLEWVAYISSGSSAIYYADTVKGRFTISRDNPKNTLFLQMTSLRSEDTAMYYCARDWVDYWGQGTTLTVSS VL: DIQMTQSPASLSVSVGETVTITCRASENIYSNLVWYQQKQGKSPQLLVYTATKLTNGVPSRFSGSGSGTQYSLKINSLQSEDFGTYYCQHFWDTPYTFGGGTKLEMK please.
Result: 62.9

Next binder, please.
Q: Report percentage of cells with FITC signal for 54-8B11 (antibody, V domains shown, mouse antibody purified from ascites) VH: QIQLVQSGPELKKPGETVKISCKASKFTFTNYGMNWVKQAPGKALKWMGWINTYTGEPTYADDFKGRFDFSLETSATTAYLQINNLKNEDTATYFCARREYYPWVFVYWGQGTLVTVSA VL: ENVLTQSPAIMSASPGEKVTMTCSASSSVSYMHWYQQKSSTSPKLWIYDTSKLASGVPGRFSGSGSGNSYSLTISSMEAEDVATYYCFQGSGYPLTFGGGTKLEIK please.
Result: 45
